Test system: OVCAR-5 complex spheroid (HUVEC/MSC), viability % T/C
Test: Anticancer human tumor OVCAR-5 cell line growth inhibition [Asc];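 note: spheroids exposed to agents for 7 days before readout; 100% = DMSO vehicle-treated wells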
Settings: second compound 1 µM; first compound 0.01 µM; hits give low values
measured property: viability, T/C (%)
# number only, unit % dropped from output

Hi! What's the reported viability, T/C for CCN1CCN(Cc2ccc(Nc3ncc(F)c(-c4cc(F)c5nc(C)n(C(C)C)c5c4)n3)nc2)CC1 + Cc1c(S(C)(=O)=O)c(-c2cc(F)cc(N3CCN(c4ccc(NS(=O)(=O)c5ccc(NC(CCN6CCC(C(=O)OCCCP(=O)(O)O)CC6)CSc6ccccc6)c(S(=O)(=O)C(F)(F)F)c5)cc4)CC3)c2)c(-c2ccc(Cl)cc2)n1C(C)C on OVCAR-5 complex spheroid (HUVEC/MSC), viability % T/C? 80.4

Hi! What's the reported viability, T/C for CNC(C)C(=O)NC1CN(S(=O)(=O)c2cccc(S(=O)(=O)N3CCC4CCC(C(=O)NC(c5ccccc5)c5ccccc5)N4C(=O)C(NC(=O)C(C)NC)C3)c2)CCC2CCC(C(=O)NC(c3ccccc3)c3ccccc3)N2C1=O (centres undefined) + Cc1c(S(C)(=O)=O)c(-c2cc(F)cc(N3CCN(c4ccc(NS(=O)(=O)c5ccc(NC(CCN6CCC(C(=O)OCCCP(=O)(O)O)CC6)CSc6ccccc6)c(S(=O)(=O)C(F)(F)F)c5)cc4)CC3)c2)c(-c2ccc(Cl)cc2)n1C(C)C on OVCAR-5 complex spheroid (HUVEC/MSC), viability % T/C? 86.9

Hi! What's the reported viability, T/C for CCN1CCN(Cc2ccc(Nc3ncc(F)c(-c4cc(F)c5nc(C)n(C(C)C)c5c4)n3)nc2)CC1 + CNC(C)C(=O)NC1CN(S(=O)(=O)c2cccc(S(=O)(=O)N3CCC4CCC(C(=O)NC(c5ccccc5)c5ccccc5)N4C(=O)C(NC(=O)C(C)NC)C3)c2)CCC2CCC(C(=O)NC(c3ccccc3)c3ccccc3)N2C1=O on OVCAR-5 complex spheroid (HUVEC/MSC), viability % T/C? 65.3

Hi! What's the reported viability, T/C for NC1CCC(NC2CC2c2ccccc2)CC1 (centres undefined) + CNC(C)C(=O)NC1CN(S(=O)(=O)c2cccc(S(=O)(=O)N3CCC4CCC(C(=O)NC(c5ccccc5)c5ccccc5)N4C(=O)C(NC(=O)C(C)NC)C3)c2)CCC2CCC(C(=O)NC(c3ccccc3)c3ccccc3)N2C1=O on OVCAR-5 complex spheroid (HUVEC/MSC), viability % T/C? 72.4
